biological target: Metabotropic glutamate receptor 5 (Homo sapiens); assay: Positive allosteric modulation of mGlu5 receptor assessed as calcium mobilization at 30 uM relative to glutamate; format: functional
Sequence (P41594 21-1212 limits assumed): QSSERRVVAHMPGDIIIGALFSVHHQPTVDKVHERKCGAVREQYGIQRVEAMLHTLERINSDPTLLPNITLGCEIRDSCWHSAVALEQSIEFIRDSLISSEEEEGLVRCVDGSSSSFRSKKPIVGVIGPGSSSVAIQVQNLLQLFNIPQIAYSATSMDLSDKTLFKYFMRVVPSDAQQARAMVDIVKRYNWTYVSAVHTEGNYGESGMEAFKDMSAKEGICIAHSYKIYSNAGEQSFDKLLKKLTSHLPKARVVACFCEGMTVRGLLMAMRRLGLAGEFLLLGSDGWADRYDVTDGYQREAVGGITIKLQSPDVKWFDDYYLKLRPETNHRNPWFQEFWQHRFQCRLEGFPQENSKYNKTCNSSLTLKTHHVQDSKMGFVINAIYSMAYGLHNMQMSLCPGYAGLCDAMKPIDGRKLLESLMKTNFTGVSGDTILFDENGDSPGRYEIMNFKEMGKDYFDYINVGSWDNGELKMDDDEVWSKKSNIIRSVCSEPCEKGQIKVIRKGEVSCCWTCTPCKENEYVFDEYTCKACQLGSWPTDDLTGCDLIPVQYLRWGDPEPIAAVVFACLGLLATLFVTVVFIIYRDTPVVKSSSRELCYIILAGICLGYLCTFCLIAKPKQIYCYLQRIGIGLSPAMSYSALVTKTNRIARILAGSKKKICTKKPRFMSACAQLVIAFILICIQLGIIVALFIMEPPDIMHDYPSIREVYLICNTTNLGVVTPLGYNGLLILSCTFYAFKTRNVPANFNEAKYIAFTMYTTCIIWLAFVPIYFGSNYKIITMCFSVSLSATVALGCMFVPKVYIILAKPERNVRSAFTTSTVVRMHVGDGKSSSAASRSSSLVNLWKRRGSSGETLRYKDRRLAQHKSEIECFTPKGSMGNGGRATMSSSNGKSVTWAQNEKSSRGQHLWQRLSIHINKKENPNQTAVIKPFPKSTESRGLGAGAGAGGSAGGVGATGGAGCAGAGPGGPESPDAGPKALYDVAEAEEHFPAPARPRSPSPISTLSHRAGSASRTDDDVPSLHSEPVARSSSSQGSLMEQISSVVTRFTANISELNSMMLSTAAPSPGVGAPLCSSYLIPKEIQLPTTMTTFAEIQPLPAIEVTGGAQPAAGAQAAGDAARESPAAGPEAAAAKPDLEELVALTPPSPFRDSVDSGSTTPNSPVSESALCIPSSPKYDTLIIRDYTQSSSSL
READOUT KIND: Activity (%)

1) O=C1c2ccc(C#Cc3ccccc3)cc2C(=O)N1CCN1CCOCC1; 44

P. CCCCN1CCc2nc(C#Cc3cccc(F)c3)ccc2C1=O
Q. CCCN1CCc2cc(C#Cc3ccccc3)ccc2C1=O
[ask] # argmax over Activity for candidates P and Q Write the label of whichever entry you select.
[reply] Q
(Q: 97%, P: 46%)

====

target: UniProt P41594; experiment: Positive allosteric modulation of mGlu5 receptor assessed as calcium mobilization
Sequence (P41594 whole entry): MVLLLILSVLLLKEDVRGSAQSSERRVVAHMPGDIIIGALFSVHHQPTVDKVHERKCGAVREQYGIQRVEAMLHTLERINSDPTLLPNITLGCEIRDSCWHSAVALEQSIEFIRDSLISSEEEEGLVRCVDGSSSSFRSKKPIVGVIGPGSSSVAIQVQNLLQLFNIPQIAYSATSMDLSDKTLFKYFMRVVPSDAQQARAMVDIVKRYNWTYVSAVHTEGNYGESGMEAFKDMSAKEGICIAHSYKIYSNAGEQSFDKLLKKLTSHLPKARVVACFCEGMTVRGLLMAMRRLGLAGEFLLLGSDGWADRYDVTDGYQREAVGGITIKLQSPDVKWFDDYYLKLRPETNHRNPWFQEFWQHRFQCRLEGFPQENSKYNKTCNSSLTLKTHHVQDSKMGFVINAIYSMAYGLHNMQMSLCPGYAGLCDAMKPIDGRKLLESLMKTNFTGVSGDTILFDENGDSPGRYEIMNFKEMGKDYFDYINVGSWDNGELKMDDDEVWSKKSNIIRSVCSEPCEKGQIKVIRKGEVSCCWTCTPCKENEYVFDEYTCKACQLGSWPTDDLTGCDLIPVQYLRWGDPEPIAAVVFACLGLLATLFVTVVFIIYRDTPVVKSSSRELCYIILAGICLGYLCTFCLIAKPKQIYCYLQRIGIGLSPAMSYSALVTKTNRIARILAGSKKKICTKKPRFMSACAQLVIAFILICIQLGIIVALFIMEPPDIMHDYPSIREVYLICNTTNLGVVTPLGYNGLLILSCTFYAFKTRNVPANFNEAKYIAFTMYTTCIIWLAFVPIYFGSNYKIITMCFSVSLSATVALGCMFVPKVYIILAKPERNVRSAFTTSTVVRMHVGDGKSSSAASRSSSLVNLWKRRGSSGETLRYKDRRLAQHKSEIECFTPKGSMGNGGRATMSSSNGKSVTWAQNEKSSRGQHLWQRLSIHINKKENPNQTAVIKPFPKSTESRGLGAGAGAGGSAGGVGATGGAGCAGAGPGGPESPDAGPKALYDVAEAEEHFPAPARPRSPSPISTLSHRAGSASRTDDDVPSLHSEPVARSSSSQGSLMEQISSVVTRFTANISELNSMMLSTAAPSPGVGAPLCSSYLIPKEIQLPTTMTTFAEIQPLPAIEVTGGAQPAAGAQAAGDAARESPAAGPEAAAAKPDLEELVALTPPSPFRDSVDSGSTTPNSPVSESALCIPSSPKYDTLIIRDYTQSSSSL
READOUT KIND: EC50

Some entries whose results are on file:
1. O=C1NCCc2cc(C#Cc3ccc(Cl)cc3)ccc21; > 10 µM
2. COc1ccc(C#Cc2ccc3c(c2)CCNC3=O)cc1; > 10 µM

Shift focus to the following entry.
[ask] What value of EC50 has been reported for the following molecule? O=C1c2ccc(C#Cc3ccccc3)cc2CCN1CC1CCC1
[reply] 0.27 µM

====

target: Metabotropic glutamate receptor 5 (Homo sapiens); assay: Positive allosteric modulation of mGlu5 receptor assessed as calcium mobilization at 30 uM relative to glutamate; type: functional
READOUT KIND: Activity (%)

1) O=C1NCCc2cc(C#Cc3cccc(Cl)c3)ccc21; 68
2) O=C1NCCc2cc(C#Cc3ccccc3F)ccc21; 80
3) O=C1c2ccc(C#Cc3ccccc3)cc2CCN1CC1CCC1; 91
4) O=C1c2ccc(C#Cc3ccccc3)cc2CCN1CCN1CCC1; 77
5) Cc1cccc(C#Cc2ccc3c(c2)CCNC3=O)c1; 76
6) O=C1NC(=O)c2cc(C#Cc3ccc(F)c(F)c3)ccc21; 84
7) CN1CCc2cc(C#Cc3ccccc3)ccc2C1=O; 53
8) Cc1cc(C#Cc2ccc3c(c2)CCNC3=O)ccc1F; 53
9) O=C(NC1CCC1)c1ccc(C#Cc2cccc(F)c2)nc1; 87
10) O=C1NCCc2nc(C#Cc3cccc(F)c3)ccc21; 72
